Target: Cytochrome P450 2D6 (Homo sapiens)
Sequence (P10635 whole entry): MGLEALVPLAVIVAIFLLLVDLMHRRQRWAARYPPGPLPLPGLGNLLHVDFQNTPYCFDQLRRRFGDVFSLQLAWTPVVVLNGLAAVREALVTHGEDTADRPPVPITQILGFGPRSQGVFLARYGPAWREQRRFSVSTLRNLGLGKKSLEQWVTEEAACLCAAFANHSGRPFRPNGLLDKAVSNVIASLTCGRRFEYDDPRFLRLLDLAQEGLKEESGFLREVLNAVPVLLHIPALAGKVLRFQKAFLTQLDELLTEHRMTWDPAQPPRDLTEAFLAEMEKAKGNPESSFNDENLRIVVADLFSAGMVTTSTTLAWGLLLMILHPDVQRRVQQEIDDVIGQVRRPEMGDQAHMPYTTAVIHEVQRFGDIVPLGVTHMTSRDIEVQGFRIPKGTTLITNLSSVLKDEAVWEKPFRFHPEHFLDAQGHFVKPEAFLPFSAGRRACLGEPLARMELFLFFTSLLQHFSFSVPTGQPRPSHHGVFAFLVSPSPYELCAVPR
ENDPOINT LABEL: IC50

Data request: // returns reported IC50 for input Cc1cc(N)c(S(N)(=O)=O)cc1C(=O)Nc1cc(F)c(F)c(F)c1
Data returned: > 15 µM

====

Biological target: UniProt:P05177
Sequence (P05177 whole entry): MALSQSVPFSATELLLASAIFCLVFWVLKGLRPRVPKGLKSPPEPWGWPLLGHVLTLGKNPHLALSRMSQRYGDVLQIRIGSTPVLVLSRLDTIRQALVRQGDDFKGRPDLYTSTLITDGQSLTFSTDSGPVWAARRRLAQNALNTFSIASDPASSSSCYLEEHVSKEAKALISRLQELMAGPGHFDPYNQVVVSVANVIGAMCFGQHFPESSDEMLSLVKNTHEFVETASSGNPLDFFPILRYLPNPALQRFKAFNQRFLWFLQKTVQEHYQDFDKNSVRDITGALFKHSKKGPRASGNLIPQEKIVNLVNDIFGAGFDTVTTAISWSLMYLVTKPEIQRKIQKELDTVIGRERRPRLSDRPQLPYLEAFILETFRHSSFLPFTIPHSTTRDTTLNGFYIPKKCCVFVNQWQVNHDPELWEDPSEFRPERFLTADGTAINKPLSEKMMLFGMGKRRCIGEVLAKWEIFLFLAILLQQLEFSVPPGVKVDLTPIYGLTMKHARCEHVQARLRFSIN
ENDPOINT LABEL: IC50 (µM)
Numbers only, in µM.

Data request: Suppose we examine the compound Cc1cc(N)c(S(N)(=O)=O)cc1C(=O)Nc1cc(F)c(F)c(F)c1 ; what IC50 value has been reported?
Data returned: 12.4

====

Assay: Half life in C57BL/6 mouse at 2 mg/kg, iv
Assay type: ADME, organism-based
Settings: in vivo
ENDPOINT LABEL: half-life (h)
Answers are plain numbers, in h.

Data request: What value of half-life has been reported for the following compound? Cc1cc(N)c(S(N)(=O)=O)cc1C(=O)Nc1cc(F)c(F)c(F)c1
Data returned: 3.2
